Reported LD50 at 504 h values are given for each entry in this list.
assay: in vivo; format: in vivo; details: mouse, in vivo, po, mice, uracil (b)/(a) mol ratio 0, as amount of 5-fluorouracil (a)
Measured Property: LD50 at 504 h (mg/kg)

>  <Molecule>
CCOC(=O)n1cc(F)c(=O)[nH]c1=O

>  <Reading>
332

$$$$
>  <Molecule>
CCCCn1cc(F)c(=O)[nH]c1=O

>  <Reading>
867

$$$$
>  <Molecule>
CCOCn1cc(F)c(=O)[nH]c1=O

>  <Reading>
1000

$$$$
>  <Molecule>
CCCCCCNC(=O)n1cc(F)c(=O)[nH]c1=O

>  <Reading>
1260

$$$$
>  <Molecule>
O=c1[nH]c(=O)n(S(=O)(=O)c2ccccc2)cc1F

>  <Reading>
1170

$$$$
>  <Molecule>
O=c1[nH]cc(F)c(=O)n1C1CCCO1 (stereo not shown) [Compound 7, 3-(2-Tetrahydrofuryl)-5-fluorouracil]

>  <Reading>
1020

$$$$
>  <Molecule>
O=c1c(F)cn(C2CCCO2)c(=O)n1C1CCCO1 (stereo not shown)

>  <Reading>
2220

$$$$

---

Reported LD50 at 504 h values are given for each entry in this list.
Assay: in vivo
Format: in vivo
Conditions: mouse, in vivo, po, mice, uracil (b)/(a) mol ratio 2.5, as amount of 5-fluorouracil (a)
Description: (5) The anti-cancer compositions of this invention are tested in mice by the following methods to determine acute toxicity, therapeutic effect and theapeutic index. Male mice of ICR strain weighing 22±1 g are used, 5 mice in each group. […] Over the following period of three weeks the mice are checked every day for poisoning, body weight and mortality. The LD50 is determined according to the up-and-down method 3 weeks after the administration.

>  <Molecule>
CCOCn1cc(F)c(=O)[nH]c1=O

>  <LD50 at 504 h / mg/kg>
446

$$$$
>  <Molecule>
O=c1[nH]c(=O)n(S(=O)(=O)c2ccccc2)cc1F

>  <LD50 at 504 h / mg/kg>
973

$$$$
>  <Molecule>
CCOC(=O)n1cc(F)c(=O)[nH]c1=O

>  <LD50 at 504 h / mg/kg>
269

$$$$
>  <Molecule>
O=c1[nH]cc(F)c(=O)n1C1CCCO1 (stereo not shown) [Compound 7, 3-(2-Tetrahydrofuryl)-5-fluorouracil]

>  <LD50 at 504 h / mg/kg>
687

$$$$
>  <Molecule>
CCCCn1cc(F)c(=O)[nH]c1=O

>  <LD50 at 504 h / mg/kg>
723

$$$$
>  <Molecule>
O=c1c(F)cn(C2CCCO2)c(=O)n1C1CCCO1 (stereo not shown)

>  <LD50 at 504 h / mg/kg>
1890

$$$$
>  <Molecule>
CCCCCCNC(=O)n1cc(F)c(=O)[nH]c1=O

>  <LD50 at 504 h / mg/kg>
980

$$$$

---

system: sarcoma 180; assay: Therapeutic effect on sarcoma 180 transplanted in mice (Table 5); type: in vivo, male mice of ICR strain; conditions: oral, uracil (b)/(a) mol ratio 2.5, as amount of 5-fluorouracil (a), 14400 min

>  <Compound>
O=c1c(F)cn(C2CCCO2)c(=O)n1C1CCCO1 (stereo not shown)

>  <ED50>
63 mg/kg

$$$$
>  <Compound>
CCOCn1cc(F)c(=O)[nH]c1=O

>  <ED50>
26 mg/kg

$$$$
>  <Compound>
O=c1[nH]c(=O)n(C2CCCO2)cc1F (stereo not shown) [Compound 2, 1-(2-Tetrahydrofuryl)-5-fluorouracil, reference compound]

>  <ED50>
20 mg/kg

$$$$
>  <Compound>
CCCCn1cc(F)c(=O)[nH]c1=O

>  <ED50>
88 mg/kg

$$$$
